# ASSAY PROCEDURE: qHTS of pediatric cancer cell lines to identify multiple opportunities for drug repurposing: Confirmatory screen for BT-37 cells (AID 1347117);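 further: viability measured after 48 h of compound exposure; nearly all actives have a fitted effect of over 55% in size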
# CONDITION INFO: BT-37 pediatric cancer cells, viability; series mostly up to 45.9 µM
Inconclusive results are not listed. The source made the active and inactive calls. The call rests on the fitted dose curve; in most records, active means well fitted cell-killing curve with a large enough effect; inconclusive means small, poorly fitted or top-dose-only effect; inactive means no such curve, though single readings can be large or run the other way.
Outcome codes: active, inactive

[
  {
    "SAMPLE SMILES": "CC=C(C)C(=O)N[C@@H](c1ccccc1)[C@@H](O)C(=O)O[C@H]1C[C@@]2(O)[C@@H](OC(=O)c3ccccc3)[C@@H]3[C@]4(OC(C)=O)CO[C@@H]4C[C@H](O)[C@@]3(C)C(=O)[C@H](OC(C)=O)C(=C1C)C2(C)C",
    "DISCRETE LABEL": "active"
  },
  {
    "SAMPLE SMILES": "Cc1[nH]nc2ccc(-c3cncc(OC[C@@H](N)Cc4c[nH]c5ccccc45)c3)cc12",
    "DISCRETE LABEL": "active"
  },
  {
    "SAMPLE SMILES": "O=C(Nc1ccncc1)C(=O)c1cn(Cc2ccc(Cl)cc2)c2ccccc12",
    "DISCRETE LABEL": "active"
  },
  {
    "SAMPLE SMILES": "O=C(N[C@H]1CN2CCC1CC2)c1ccc(Cl)cc1",
    "DISCRETE LABEL": "inactive"
  }
]
